# assayed target: HIV-1 Env of isolate MGRM-D-002 (subtype D) (HIV-1)
# assay notes: cell-based or functional assay
Reported log10(IC50 (neutralization)) values for the following binders.
outcome measure: log10(IC50 (neutralization)) (log10 of the value in µg/mL)

{"columns": ["binder", "outcome measure", "reported value"],
 "data": [
  ["PGT-130 (antibody, V domains shown) VH: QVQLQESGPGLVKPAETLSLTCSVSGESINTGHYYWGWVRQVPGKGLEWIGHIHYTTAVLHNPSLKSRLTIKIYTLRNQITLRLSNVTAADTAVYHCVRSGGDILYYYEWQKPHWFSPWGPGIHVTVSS VL: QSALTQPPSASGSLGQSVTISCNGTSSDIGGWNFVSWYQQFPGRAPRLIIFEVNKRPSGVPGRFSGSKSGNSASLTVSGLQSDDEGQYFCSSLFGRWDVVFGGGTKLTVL", "log10(IC50 (neutralization))", -0.06],
  ["PGT-131 (antibody, V domains shown) VH: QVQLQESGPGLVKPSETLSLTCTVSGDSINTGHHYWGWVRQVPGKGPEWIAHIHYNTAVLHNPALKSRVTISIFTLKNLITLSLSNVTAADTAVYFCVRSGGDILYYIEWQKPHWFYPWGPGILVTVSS VL: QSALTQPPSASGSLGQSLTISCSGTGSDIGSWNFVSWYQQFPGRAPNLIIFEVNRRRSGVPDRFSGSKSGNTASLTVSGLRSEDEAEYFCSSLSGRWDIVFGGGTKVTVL", "log10(IC50 (neutralization))", 1.05],
  ["PGT-123 (antibody, V domains shown) VH: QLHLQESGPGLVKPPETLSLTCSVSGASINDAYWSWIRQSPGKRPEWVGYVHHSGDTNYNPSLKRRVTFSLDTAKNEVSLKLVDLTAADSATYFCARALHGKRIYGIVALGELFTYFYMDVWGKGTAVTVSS VL: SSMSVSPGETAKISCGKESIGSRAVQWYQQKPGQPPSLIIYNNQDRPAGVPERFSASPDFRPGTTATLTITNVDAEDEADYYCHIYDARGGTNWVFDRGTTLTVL", "log10(IC50 (neutralization))", -1.92],
  ["PGT-128 (antibody, V domains shown) VH: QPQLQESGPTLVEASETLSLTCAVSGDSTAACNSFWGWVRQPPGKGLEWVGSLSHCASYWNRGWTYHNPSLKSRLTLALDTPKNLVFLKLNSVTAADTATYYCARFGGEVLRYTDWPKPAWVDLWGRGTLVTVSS VL: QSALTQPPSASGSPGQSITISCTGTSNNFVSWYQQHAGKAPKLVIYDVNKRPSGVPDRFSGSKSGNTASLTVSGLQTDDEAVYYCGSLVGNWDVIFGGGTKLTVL", "log10(IC50 (neutralization))", -1.96],
  ["PGT-126 (antibody, V domains shown) VH: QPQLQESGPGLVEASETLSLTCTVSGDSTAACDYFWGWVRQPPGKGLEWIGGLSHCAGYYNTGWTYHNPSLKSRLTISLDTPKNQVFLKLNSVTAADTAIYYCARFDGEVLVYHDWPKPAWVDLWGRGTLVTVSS VL: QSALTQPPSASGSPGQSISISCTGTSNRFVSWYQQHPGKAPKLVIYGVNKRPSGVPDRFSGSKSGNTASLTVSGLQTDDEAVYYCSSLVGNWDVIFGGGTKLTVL", "log10(IC50 (neutralization))", -1.41]
]}
